Molecular target: human IDO1 (Homo sapiens)
Sequence (P14902 whole entry): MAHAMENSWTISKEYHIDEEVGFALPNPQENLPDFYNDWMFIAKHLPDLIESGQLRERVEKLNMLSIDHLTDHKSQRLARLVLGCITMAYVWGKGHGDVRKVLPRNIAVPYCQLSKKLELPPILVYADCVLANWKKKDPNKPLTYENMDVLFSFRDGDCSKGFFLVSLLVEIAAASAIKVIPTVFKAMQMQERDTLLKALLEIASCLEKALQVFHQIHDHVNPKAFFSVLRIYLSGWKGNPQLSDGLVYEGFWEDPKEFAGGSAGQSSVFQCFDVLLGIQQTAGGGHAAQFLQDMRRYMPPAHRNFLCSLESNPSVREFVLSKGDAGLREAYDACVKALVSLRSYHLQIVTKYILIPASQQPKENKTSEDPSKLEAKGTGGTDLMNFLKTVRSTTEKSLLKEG
Assay: Assessment of human IDO-1 inhibitory activity in Hela cells (Interferon-gamma activated, Ehrlich reagent, absorbance at 490 nm)
Assay type: cell-based
Parameters: endogenous in cells; host or cells: HeLa cells stimulated with interferon-gamma
Conditions: 18 hours
observed_property: IC50

[
  {
    "compound": "CCOc1ncc(Nc2cc(C(CC)CC(=O)O)ccc2N(CC)C2CCOC2)cn1 (single isomer, unassigned) [947 D2]",
    "IC50": "< 50 nM"
  }
]

### Prompt Name the reported IC50 value associated with the compound COCC(CC(=O)O)c1ccc(N2CCOC(C)C2)c(Nc2ccc(C#N)cc2)c1 (single isomer, unassigned)
### Response > 50 nM

### Prompt Name the reported IC50 value associated with the compound COCC(CC(=O)O)c1ccc(N2CCOC[C@@H]2C(C)C)c(NC(=O)Nc2ccc(C#N)cc2)c1 (single isomer, unassigned)
### Response > 50 nM

### Prompt Name the reported IC50 value associated with the compound CCN(c1ccc(C(CC(=O)O)C2CC2)cc1Nc1ccc(Cl)cc1)C1CCOCC1 (single isomer, unassigned) [Example 33 Enantiomer 2]
### Response < 5 nM

### Prompt Name the reported IC50 value associated with the compound CCN(c1ccc([C@@H](COC)CC(=O)O)cc1NC(=O)Nc1ccc(C#N)cc1)C1CCOCC1 [Example 422 E1]
### Response > 50 nM

### Prompt Name the reported IC50 value associated with the compound CCC(CC(=O)O)c1ccc(N2CCC(C)CC2)c(NC(=O)Nc2ccc(C)cc2)c1 (single isomer, unassigned) [Example 46 Enantiomer 2]
### Response > 50 nM

### Prompt Name the reported IC50 value associated with the compound COCC(CC(=O)O)c1ccc(N(CC(F)F)C2CCOCC2)c(Nc2ccc(Cl)cc2)c1 (single isomer, unassigned) [Example 321 Enantiomer 2]
### Response < 5 nM

### Prompt Name the reported IC50 value associated with the compound CCC(CC(=O)O)c1ccc(N(CC)C2CCN(Cc3ccccc3)CC2)c(Nc2ccc(C#N)cc2)c1 (single isomer, unassigned)
### Response < 5 nM
